# SPOT signal as a fraction of Bim BH3's signal on the same receptor and array listing for each entry below
Target: Bcl-xL, Q07817
Sequence (Q07817 1-209): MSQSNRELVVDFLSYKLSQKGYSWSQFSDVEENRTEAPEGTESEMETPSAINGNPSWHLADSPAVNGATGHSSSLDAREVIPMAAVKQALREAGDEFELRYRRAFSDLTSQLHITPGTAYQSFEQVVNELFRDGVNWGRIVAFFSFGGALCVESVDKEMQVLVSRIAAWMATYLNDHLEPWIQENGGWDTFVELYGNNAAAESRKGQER
Assay: peptide SPOT array, c-Myc-tagged receptor at 1 uM or 100 nM, anti-c-Myc-Cy3
// return just the number, without any unit appended

The following binders have reported results that may help.
I have this binder here, MRPEIWIAQELRRILDEFNAYYARRV [BCL2L11] , and I need its recorded SPOT signal as a fraction of Bim BH3's signal on the same receptor and array.
0.1

I have this binder here, PSLSKELTSSDAGVGDVSFDSDSQFP [CRTC1] , and I need its recorded SPOT signal as a fraction of Bim BH3's signal on the same receptor and array.
0.01

I have this binder here, WVKSIRICTPMGKLGDSCHPLTRKVP [PROK2] , and I need its recorded SPOT signal as a fraction of Bim BH3's signal on the same receptor and array.
1.07

I have this binder here, AHKARALARLDRQTALAAFSDFKRLQ [FAM43B] , and I need its recorded SPOT signal as a fraction of Bim BH3's signal on the same receptor and array.
1.22

I have this binder here, SKFVILSAHKLVFILDTLSRQAKAAD [BCAR1] , and I need its recorded SPOT signal as a fraction of Bim BH3's signal on the same receptor and array.
0.07

More entries:
I have this binder here, GVMTQEVGQLLQDMLDDVYQQYRSLT [HUWE1] , and I need its recorded SPOT signal as a fraction of Bim BH3's signal on the same receptor and array.
0.03

I have this binder here, ASEAMLFEEALEKYGKDFNDIRQDFL [MTA2] , and I need its recorded SPOT signal as a fraction of Bim BH3's signal on the same receptor and array.
0.03
